I'd appreciate it if you could supply PBM binding z-score values for the items below.
System: VDR:RXRa (NR concentration 270 nM, RXRa partner concentration 90 nM)
PROTOCOL SUMMARY: PBM binding z-score (relative to random genomic background probes); higher = stronger binding; sequences stand for … in GC…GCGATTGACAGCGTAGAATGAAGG
Answers are plain numbers.

Below: 3 sequences and their reported PBM binding z-score.
• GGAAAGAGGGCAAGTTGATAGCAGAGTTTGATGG = 1.24
• ATCGAAAGGTCGGAGGTGAGTATACCCACCCGAA = 1.75
• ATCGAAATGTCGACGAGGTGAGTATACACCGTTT = 0.509

Below are 3 sequences. Give each one its PBM binding z-score.
1. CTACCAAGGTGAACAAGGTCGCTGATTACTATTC
2. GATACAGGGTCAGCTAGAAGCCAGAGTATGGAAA
3. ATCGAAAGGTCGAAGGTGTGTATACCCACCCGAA

output:
5.5
2.11
2.43

Below are 7 sequences. Give each one its PBM binding z-score.
1. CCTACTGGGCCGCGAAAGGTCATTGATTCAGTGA
2. ATATGTAGGATACATCCGGGTCATTCAGGCTATG
3. GGTACGAGGGCATTCGAGTTGATAGCATGGCGAT
4. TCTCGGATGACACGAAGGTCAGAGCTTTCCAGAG
5. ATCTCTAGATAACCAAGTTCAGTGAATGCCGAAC
6. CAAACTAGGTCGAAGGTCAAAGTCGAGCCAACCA
7. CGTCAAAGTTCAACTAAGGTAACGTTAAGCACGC

output:
1. 3.74
2. 3.21
3. 3.71
4. 1.46
5. 1.16
6. 4.45
7. 4.69

Below are 3 sequences. Give each one its PBM binding z-score.
1. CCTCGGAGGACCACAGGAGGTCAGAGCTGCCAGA
2. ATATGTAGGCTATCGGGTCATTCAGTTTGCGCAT
3. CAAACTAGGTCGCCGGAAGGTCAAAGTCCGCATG

output:
1.43
4.58
4.5

---

I'd appreciate it if you could supply PBM binding z-score values for the items below.
Test system: LXRb homodimer (NR concentration 270 nM)
PROTOCOL SUMMARY: PBM binding z-score (relative to random genomic background probes); higher = stronger binding; sequences stand for … in GC…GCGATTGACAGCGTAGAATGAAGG
Answers are plain numbers.

Below: 5 sequences and their reported PBM binding z-score.
• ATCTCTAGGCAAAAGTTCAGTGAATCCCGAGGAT = 0.319
• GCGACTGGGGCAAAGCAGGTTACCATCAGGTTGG = -1.13
• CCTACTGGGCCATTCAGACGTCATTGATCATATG = -0.437
• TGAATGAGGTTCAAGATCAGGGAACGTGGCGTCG = -0.0166
• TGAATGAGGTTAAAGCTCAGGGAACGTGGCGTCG = -0.222

Below are 7 sequences. Give each one its PBM binding z-score.
1. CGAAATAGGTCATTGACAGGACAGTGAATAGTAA
2. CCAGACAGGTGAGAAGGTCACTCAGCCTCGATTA
3. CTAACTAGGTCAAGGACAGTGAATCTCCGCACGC
4. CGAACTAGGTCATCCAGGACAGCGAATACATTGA
5. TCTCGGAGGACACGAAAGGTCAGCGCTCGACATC
6. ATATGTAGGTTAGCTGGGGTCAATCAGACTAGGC
7. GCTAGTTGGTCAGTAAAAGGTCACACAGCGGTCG

output:
1: 0.828; 2: -0.075; 3: 0.129; 4: -0.199; 5: -0.162; 6: 1.47; 7: 0.715

---

System: VDR:RXRa (NR concentration 270 nM, RXRa partner concentration 90 nM)
PROTOCOL SUMMARY: PBM binding z-score (relative to random genomic background probes); higher = stronger binding; sequences stand for … in GC…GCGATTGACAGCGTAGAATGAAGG
EXPERIMENTAL ENDPOINT: PBM binding z-score
Answers are plain numbers.

Below: 5 sequences and their reported PBM binding z-score.
• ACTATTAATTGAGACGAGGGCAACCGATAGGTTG = 0.764
• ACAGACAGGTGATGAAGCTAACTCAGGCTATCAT = -0.278
• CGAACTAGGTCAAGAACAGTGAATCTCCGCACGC = 1.04
• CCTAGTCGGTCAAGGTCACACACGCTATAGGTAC = 4.29
• ACTCGGAGGAGAAAGGTCAGAGCTACGCCAGTGA = 2.16

Below are 4 sequences. Give each one its PBM binding z-score.
1. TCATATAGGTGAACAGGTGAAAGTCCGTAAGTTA
2. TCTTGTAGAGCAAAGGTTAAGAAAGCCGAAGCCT
3. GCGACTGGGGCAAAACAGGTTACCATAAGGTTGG
4. ACTTACGGGTCAACGAGGGTATAGCACGCGTATA

output:
1.19
0.679
0.212
7.1

Below are 3 sequences. Give each one its PBM binding z-score.
1. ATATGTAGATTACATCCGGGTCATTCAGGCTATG
2. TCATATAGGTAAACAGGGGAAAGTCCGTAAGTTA
3. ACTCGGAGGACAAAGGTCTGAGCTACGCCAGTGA

output:
1. 3.34
2. 1.06
3. -0.29

Below are 4 sequences. Give each one its PBM binding z-score.
1. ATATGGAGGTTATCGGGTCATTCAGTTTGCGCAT
2. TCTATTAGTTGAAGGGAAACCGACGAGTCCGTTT
3. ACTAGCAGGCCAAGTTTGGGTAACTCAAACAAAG
4. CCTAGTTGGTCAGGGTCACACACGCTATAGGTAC

output:
1. 5.78
2. 0.851
3. -0.517
4. 4.17

Below are 7 sequences. Give each one its PBM binding z-score.
1. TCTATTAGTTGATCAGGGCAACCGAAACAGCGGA
2. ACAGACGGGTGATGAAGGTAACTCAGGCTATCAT
3. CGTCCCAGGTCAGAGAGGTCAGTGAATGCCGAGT
4. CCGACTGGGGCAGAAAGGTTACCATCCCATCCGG
5. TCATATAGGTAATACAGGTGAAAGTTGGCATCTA
6. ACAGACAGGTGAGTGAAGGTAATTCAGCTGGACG
7. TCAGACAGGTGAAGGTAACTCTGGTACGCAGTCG

output:
1: 0.669; 2: 0.177; 3: 6.8; 4: 0.789; 5: 1.46; 6: -0.394; 7: 0.577

Below are 3 sequences. Give each one its PBM binding z-score.
1. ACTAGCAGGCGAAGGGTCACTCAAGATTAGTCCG
2. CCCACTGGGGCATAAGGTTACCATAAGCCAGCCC
3. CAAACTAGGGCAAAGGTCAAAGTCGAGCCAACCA

output:
[2.23, -0.113, 5.41]

---

Tested on: PPARg:RXRa 30nM:10nM, anti-RXR (NR concentration 30 nM, RXRa partner concentration 10 nM)
PROTOCOL SUMMARY: PBM binding z-score (relative to random genomic background probes); higher = stronger binding; sequences stand for … in GC…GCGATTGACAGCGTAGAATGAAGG
EXPERIMENTAL ENDPOINT: PBM binding z-score
Give bare numbers.

Below: 5 sequences and their reported PBM binding z-score.
- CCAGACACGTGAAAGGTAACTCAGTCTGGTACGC: -0.466
- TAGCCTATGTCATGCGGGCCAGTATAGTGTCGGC: -0.612
- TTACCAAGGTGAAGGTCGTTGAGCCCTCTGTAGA: 2.31
- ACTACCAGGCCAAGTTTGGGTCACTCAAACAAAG: -0.29
- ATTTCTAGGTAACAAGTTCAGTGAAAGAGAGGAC: 1.82

input: Query: PBM binding z-score; subject: `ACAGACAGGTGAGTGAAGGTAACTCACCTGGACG`
output: 0.0231

---

Test system: VDR:RXRa (NR concentration 270 nM, RXRa partner concentration 90 nM)
PROTOCOL SUMMARY: PBM binding z-score (relative to random genomic background probes); higher = stronger binding; sequences stand for … in GC…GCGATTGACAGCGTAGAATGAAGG
Please enter Condition met where PBM binding z-score is greater than or equal to 0.3, and Condition not met where it is lower.

Answered examples (5):
* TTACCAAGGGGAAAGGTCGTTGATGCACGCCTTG | Condition met
* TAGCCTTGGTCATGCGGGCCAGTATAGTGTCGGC | Condition not met
* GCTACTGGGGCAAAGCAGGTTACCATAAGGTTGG | Condition not met
* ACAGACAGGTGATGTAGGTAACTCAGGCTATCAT | Condition not met
* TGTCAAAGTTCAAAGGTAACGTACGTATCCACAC | Condition met

input: Decide: PBM binding z-score of `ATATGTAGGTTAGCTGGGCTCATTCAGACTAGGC` >= 0.3?
output: Condition not met

input: Decide: PBM binding z-score of `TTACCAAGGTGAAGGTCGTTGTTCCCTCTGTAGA` >= 0.3?
output: Condition met

input: Decide: PBM binding z-score of `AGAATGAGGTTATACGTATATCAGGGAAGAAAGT` >= 0.3?
output: Condition met
